Origin of the recorded values: ChEMBL document CHEMBL1159112

- procedureText: Selectivity for electric eel AChE over horse serum BChE
Kindly supply the reported Ratio IC50 values for the records listed here.
Form rule: numeric answer, no unit written next to it.

## Task Query (compound): `COc1ccc2cc3[n+](cc2c1OCCCOn1nnc2ccccc21)CCc1cc2c(cc1-3)OCO2` ; field requested: Ratio IC50
## Result 8

## Task Query (compound): `COc1ccc2cc3[n+](cc2c1OCCCCCOn1nnc2ccccc21)CCc1cc2c(cc1-3)OCO2` ; field requested: Ratio IC50
## Result 8.9

## Task Query (compound): `COc1ccc2cc3[n+](cc2c1OCCCCCCOn1nnc2ccccc21)CCc1cc2c(cc1-3)OCO2` ; field requested: Ratio IC50
## Result 5.5

## Task Query (compound): `COc1ccc2cc3[n+](cc2c1OCCCCOn1nnc2ccccc21)CCc1cc2c(cc1-3)OCO2` ; field requested: Ratio IC50
## Result 18.6
